Origin of the recorded values: patent EP2276483B1

METHOD: Solubility Studies in solvents
Type: physicochemical
STUDY CONDITIONS: methanol, 25 °C, organic solvent or mixture, thermodynamic from solid, Methanol, about 25 °C; read-out: Approximate Solubility
PARAMETER: solubility
Reply with a number, then the unit it belongs to.

## Task Could you tell me which solubility is on file for CCOc1cc(C(CS(C)(=O)=O)N2C(=O)c3cccc(NC(C)=O)c3C2=O)ccc1OC (single isomer, unassigned; (+)) [Form B] ?
## Result 4050 µg/mL

###

METHOD: Aqueous equilibrium solubility in pH 7.4 buffer
Type: physicochemical
STUDY CONDITIONS: thermodynamic from solid; pH 7.4 aqueous buffer, room temperature; read-out: Measured solubility
PARAMETER: solubility
Reply with a number, then the unit it belongs to.

## Task Could you tell me which solubility is on file for CCOc1cc(C(CS(C)(=O)=O)N2C(=O)c3cccc(NC(C)=O)c3C2=O)ccc1OC (racemic) [Racemic Compound] ?
## Result 3.4 µg/mL

###

METHOD: Solubility Studies in solvents
Format: physicochemical
STUDY CONDITIONS: toluene, 25 °C, organic solvent or mixture, thermodynamic from solid, Toluene, about 25 °C; read-out: Approximate Solubility
Experimental: Solubility Studies. A weighed sample of Compound A (about 100 mg) was treated with about 2 mL of the test solvent. The solvents used were either reagent or HPLC grade. The resulting mixture was agitated for at least 24 hours at about 25 °C. When all of the solids were dissolved by visual inspection, the estimated solubilities were calculated. […] The actual solubilities may be greater than those calculated due to the use of large amount of solvent or to a slow rate of dissolution. […]
PARAMETER: solubility

## Task Could you tell me which solubility is on file for CCOc1cc(C(CS(C)(=O)=O)N2C(=O)c3cccc(NC(C)=O)c3C2=O)ccc1OC (single isomer, unassigned; (+)) [Form B] ?
## Result < 1000 µg/mL

###

Test system: IFN-γ
METHOD: SEB-induced IFN-γ production in human PBMC
Assay type: cell-based
STUDY CONDITIONS: 100 ng/ml SEB
PARAMETER: pIC50
Just the number, please; pIC50 means minus log10 of the concentration in mol/L.

## Task Could you tell me which pIC50 is on file for CCOc1cc(C(CS(C)(=O)=O)N2C(=O)c3cccc(NC(C)=O)c3C2=O)ccc1OC (single isomer, unassigned; (+)) [Compound A] ?
## Result 7.34

###

METHOD: Stability Studies of solid forms
Assay type: physicochemical
STUDY CONDITIONS: EQ in heptane at 40 °C for 4 weeks
PARAMETER: Analysis by XRPD (resulting form)

CCOc1cc(C(CS(C)(=O)=O)N2C(=O)c3cccc(NC(C)=O)c3C2=O)ccc1OC (single isomer, unassigned; (+)) [Form B]    Form B
CCOc1cc(C(CS(C)(=O)=O)N2C(=O)c3cccc(NC(C)=O)c3C2=O)ccc1OC (single isomer, unassigned; (+)) [Form D]    Form B

###

METHOD: Solubility Studies in solvents
Assay type: physicochemical
STUDY CONDITIONS: 2-propanol, 25 °C, organic solvent or mixture, thermodynamic from solid, 2-Propanol, about 25 °C; read-out: Approximate Solubility
PARAMETER: solubility

## Task Could you tell me which solubility is on file for CCOc1cc(C(CS(C)(=O)=O)N2C(=O)c3cccc(NC(C)=O)c3C2=O)ccc1OC (single isomer, unassigned; (+)) [Form B] ?
## Result < 1000 µg/mL

###

METHOD: Solubility Studies in solvents
Type: physicochemical
STUDY CONDITIONS: ethyl acetate, 25 °C, organic solvent or mixture, thermodynamic from solid, Ethyl acetate, about 25 °C; read-out: Approximate Solubility
PARAMETER: solubility

## Task Could you tell me which solubility is on file for CCOc1cc(C(CS(C)(=O)=O)N2C(=O)c3cccc(NC(C)=O)c3C2=O)ccc1OC (single isomer, unassigned; (+)) [Form B] ?
## Result ~30.2 mg/mL

###

Test system: CD18
METHOD: fMLF-induced CD18 expression on neutrophils
Assay type: cell-based
STUDY CONDITIONS: Neutrophil; human neutrophils; 30 nM fMLF
PARAMETER: IC50 (nM)
Give the value in nM but do not write nM after it.

## Task Could you tell me which IC50 is on file for CCOc1cc(C(CS(C)(=O)=O)N2C(=O)c3cccc(NC(C)=O)c3C2=O)ccc1OC (single isomer, unassigned; (+)) ?
## Result 390
